# test-summary: Plasma clearance in po dosed human
# particulars: in vivo
Measured CL/F, listed per entry.
Numbers only here, please. The scale is mL/min/kg.

Cc1ccc(C)c(OCCCC(C)(C)C(=O)O)c1; 1.73

The record that follows has no CL/F shown yet.
molecule O=C([O-])Cc1ccccc1Nc1c(Cl)cccc1Cl.[Na+] [DICLOFENAC SODIUM] , CL/F observed: 6.48

----------
# test-summary: in vitro
# particulars: dog, plasma
# Description: Fraction unbound in dog plasma by ultracentrifugation method
Binary call on fraction unbound: 1 (yes) from 0.005 upward, 0 (no) beneath that.

Check out these entries, answers already filled in.
COc1c(C)c2c(c(O)c1C/C=C(\C)CCC(=O)O)C(=O)OC2 [MYCOPHENOLIC ACID]; 0 (no)
CCCc1nc2c(C)cc(-c3nc4ccccc4n3C)cc2n1Cc1ccc(-c2ccccc2C(=O)O)cc1; 1 (yes)
O=C([O-])Cc1ccccc1Nc1c(Cl)cccc1Cl.[Na+] [DICLOFENAC SODIUM]; 0 (no)
O=C(c1ccc(OCCN2CCCCC2)cc1)c1c(-c2ccc(O)cc2)sc2cc(O)ccc12 [RALOXIFENE]; 0 (no)
Cc1ccc(C)c(OCCCC(C)(C)C(=O)O)c1 [GEMFIBROZIL]; 0 (no)
C[C@H]1COc2c(N3CCN(C)CC3)c(F)cc3c(=O)c(C(=O)O)cn1c23.Cl [LEVOFLOXACIN HYDROCHLORIDE]; 1 (yes)
O=C1Nc2ccc(Cl)cc2C(c2ccccc2Cl)=NC1O (centres undefined) [LORAZEPAM]; 1 (yes)

Proceed to the following item.
Prompt: // inclusive: fraction unbound at least 0.005? input: Cc1cn([C@H]2C[C@H](N=[N+]=[N-])[C@@H](CO)O2)c(=O)[nH]c1=O [ZIDOVUDINE]
Response: 1 (yes)

----------
# test-summary: in vitro
# particulars: mouse
# Description: Ratio of drug level in blood to plasma in mouse
Each entry gets False if its blood plasma ratio stays under 0.7, and True if its blood plasma ratio is 0.7 or above.

Reference set, count: 4
O=C([O-])Cc1ccccc1Nc1c(Cl)cccc1Cl.[Na+] [DICLOFENAC SODIUM]; False
COc1c(C)c2c(c(O)c1C/C=C(\C)CCC(=O)O)C(=O)OC2; True
O=C1Nc2ccc(Cl)cc2C(c2ccccc2Cl)=NC1O (stereo unspecified); True
COc1ccc2c(c1)c(CC(=O)O)c(C)n2C(=O)c1ccc(Cl)cc1; False

Alright, here's another molecule for you.
Prompt: # check: blood plasma ratio of `CCCc1nc2c(C)cc(-c3nc4ccccc4n3C)cc2n1Cc1ccc(-c2ccccc2C(=O)O)cc1` is greater than or equal to 0.7
Response: False

----------
# test-summary: in vitro
# particulars: mouse, plasma
# Description: Fraction unbound in mouse plasma by ultracentrifugation method
Listing of recorded fraction unbound by entry.
Write the value as a bare number.

Entry `Cc1cn([C@H]2C[C@H](N=[N+]=[N-])[C@@H](CO)O2)c(=O)[nH]c1=O` — recorded fraction unbound = 0.896

Quick note, fraction unbound for `COc1ccc2c(c1)c(CC(=O)O)c(C)n2C(=O)c1ccc(Cl)cc1` landed at 0.009

fraction unbound measured on O=C1Nc2ccc(Cl)cc2C(c2ccccc2Cl)=NC1O (centres undefined) = 0.158

----------
# test-summary: in vitro
# particulars: dog
# Description: Ratio of drug level in blood to plasma in dog
Reported blood plasma ratio values for a set of compounds
// no unit string in output, number only

O=C1Nc2ccc(Cl)cc2C(c2ccccc2Cl)=NC1O (stereo unspecified); 0.77
COc1c(C)c2c(c(O)c1C/C=C(\C)CCC(=O)O)C(=O)OC2; 0.75
COc1ccc2c(c1)c(CC(=O)O)c(C)n2C(=O)c1ccc(Cl)cc1; 0.65
CCCc1nc2c(C)cc(-c3nc4ccccc4n3C)cc2n1Cc1ccc(-c2ccccc2C(=O)O)cc1; 1.18
Cc1ccc(C)c(OCCCC(C)(C)C(=O)O)c1; 0.64

Query O=C([O-])Cc1ccccc1Nc1c(Cl)cccc1Cl.[Na+] [DICLOFENAC SODIUM] yields blood plasma ratio of 1.01

----------
Listed below: Fm values for each entry.
# test-summary: Drug metabolism in bile duct-cannulated rat assessed as glucuronide concentration in bile and urine at 0.2 mg/kg, iv up to 24 hrs by LC/MS/MS analysis
# Format: ADME, organism-based
# Parameters: dose 0.2 mg/kg, route intravenous
# particulars: in vivo
Answer with a bare number; do not write a unit.

Look over these answered cases.
COc1c(C)c2c(c(O)c1C/C=C(\C)CCC(=O)O)C(=O)OC2 [MYCOPHENOLIC ACID]; 0.096
O=C([O-])Cc1ccccc1Nc1c(Cl)cccc1Cl.[Na+] [DICLOFENAC SODIUM]; 0.065
CN(C)CCCN1c2ccccc2CCc2ccccc21.Cl [IMIPRAMINE HYDROCHLORIDE]; 0.014
O=C1Nc2ccc(Cl)cc2C(c2ccccc2Cl)=NC1O (stereo not given) [LORAZEPAM]; 0.085

# next molecule below
Fm reported for this molecule `CCCc1nc2c(C)cc(-c3nc4ccccc4n3C)cc2n1Cc1ccc(-c2ccccc2C(=O)O)cc1` : 0.396

----------
# test-summary: Plasma clearance in human
# particulars: plasma
measurement-name: clearance (L/h/kg)
Could you give me the number in L/h/kg? Just the number is fine.

For orientation, consider the following solved cases.
C[C@H]1COc2c(N3CCN(C)CC3)c(F)cc3c(=O)c(C(=O)O)cn1c23.Cl [LEVOFLOXACIN HYDROCHLORIDE]; 0.114
COc1c(C)c2c(c(O)c1C/C=C(\C)CCC(=O)O)C(=O)OC2; 0.199
O=C1Nc2ccc(Cl)cc2C(c2ccccc2Cl)=NC1O (stereo not given); 0.0726
COc1ccc2c(c1)c(CC(=O)O)c(C)n2C(=O)c1ccc(Cl)cc1; 0.0948

Could you now look at the following compound, please?
clearance reading for `O=C(c1ccc(OCCN2CCCCC2)cc1)c1c(-c2ccc(O)cc2)sc2cc(O)ccc12` : 0.882

----------
# test-summary: in vitro
# particulars: rhesus monkey
# Description: Ratio of drug level in blood to plasma in monkey
# if measured blood plasma ratio < 1: True  # else: False

Example cases with answers are listed next.
CCCc1nc2c(C)cc(-c3nc4ccccc4n3C)cc2n1Cc1ccc(-c2ccccc2C(=O)O)cc1; False
COc1ccc2c(c1)c(CC(=O)O)c(C)n2C(=O)c1ccc(Cl)cc1; False
O=C1Nc2ccc(Cl)cc2C(c2ccccc2Cl)=NC1O (stereo unspecified); True

Prompt: Does the reported blood plasma ratio of `Cc1ccc(C)c(OCCCC(C)(C)C(=O)O)c1` stay below 1?
Response: True

Prompt: I wonder whether `COc1c(C)c2c(c(O)c1C/C=C(\C)CCC(=O)O)C(=O)OC2` has blood plasma ratio below 1. Can you tell?
Response: True

----------
# test-summary: Drug metabolism in human assessed as glucuronide concentration in urine
Classify as follows. Reported Fm greater than or equal to 0.8: YES. Reported Fm below: NO.

Cc1cn([C@H]2C[C@H](N=[N+]=[N-])[C@@H](CO)O2)c(=O)[nH]c1=O [ZIDOVUDINE]; YES

Prompt: Is reported Fm greater than or equal to 0.8 here: O=C([O-])Cc1ccccc1Nc1c(Cl)cccc1Cl.[Na+] [DICLOFENAC SODIUM]
Response: NO

----------
# test-summary: in vitro
# particulars: human
# Description: Ratio of drug level in blood to plasma in human
A collection of compounds and their measured blood plasma ratio
Would you mind answering with just the numeric figure?

These recorded examples may help you get a feel for the data.
O=C([O-])Cc1ccccc1Nc1c(Cl)cccc1Cl.[Na+] [DICLOFENAC SODIUM]; 0.71
CCCc1nc2c(C)cc(-c3nc4ccccc4n3C)cc2n1Cc1ccc(-c2ccccc2C(=O)O)cc1; 1.24
Cc1ccc(C)c(OCCCC(C)(C)C(=O)O)c1; 0.75

blood plasma ratio in this record for O=C1Nc2ccc(Cl)cc2C(c2ccccc2Cl)=NC1O (stereo unspecified) : 1.14

Consider `COc1ccc2c(c1)c(CC(=O)O)c(C)n2C(=O)c1ccc(Cl)cc1` . Its measured blood plasma ratio is 0.98

Sample `COc1c(C)c2c(c(O)c1C/C=C(\C)CCC(=O)O)C(=O)OC2` ; blood plasma ratio observed: 0.69

----------
# test-summary: clinical
# particulars: human, in vivo
# half-life per entry
Response body: numeric value in h, unit text excluded.

# annotated cases, reported half-life shown
COc1ccc2c(c1)c(CC(=O)O)c(C)n2C(=O)c1ccc(Cl)cc1 [INDOMETHACIN]; 6.77
C[C@H]1COc2c(N3CCN(C)CC3)c(F)cc3c(=O)c(C(=O)O)cn1c23.Cl [LEVOFLOXACIN HYDROCHLORIDE]; 7.3
CN(C)CCCN1c2ccccc2CCc2ccccc21.Cl [IMIPRAMINE HYDROCHLORIDE]; 10.7

Please turn your attention to the following entry.
Just so you know, measured half-life for O=C1Nc2ccc(Cl)cc2C(c2ccccc2Cl)=NC1O (centres undefined) [LORAZEPAM] came out at 12.4

----------
# test-summary: in vitro
# particulars: mouse, plasma
Decision: fraction unbound >= 0.04 yields class 1, all other cases yield class 0.

CCCc1nc2c(C)cc(-c3nc4ccccc4n3C)cc2n1Cc1ccc(-c2ccccc2C(=O)O)cc1; class 1
CN(C)CCCN1c2ccccc2CCc2ccccc21.Cl [IMIPRAMINE HYDROCHLORIDE]; class 1
O=C([O-])Cc1ccccc1Nc1c(Cl)cccc1Cl.[Na+] [DICLOFENAC SODIUM]; class 0
O=C(c1ccc(OCCN2CCCCC2)cc1)c1c(-c2ccc(O)cc2)sc2cc(O)ccc12; class 0

Now let's try a different one.
Prompt: Hi, just wondering whether `COc1c(C)c2c(c(O)c1C/C=C(\C)CCC(=O)O)C(=O)OC2` shows fraction unbound of 0.04 or higher.
Response: class 0
